Biological target: human NPR1 (Homo sapiens, UniProt P16066)
Construct: host or cells: CHO-K1
Experiment: Cellular cGMP production assay, human NPR1 expressing CHO-K1 cells (CisBio HTRF)
Format: cell-based
Conditions: maximum cGMP production as percentage of the maximum cGMP produced with ANP
Listing: Human NPR1 Amax (% of ANP) of selected compounds
Endpoint: Human NPR1 Amax (% of ANP)

1) CC[C@@H](Nc1nc2c(c(N[C@@H](CN3CCC[C@H](C)C3)c3cnn(C)c3)n1)C[C@](C)(c1cccc(F)c1)CC2)[C@H]1CC[C@H](C(=O)O)CC1 [Compound 2]    96.935 % of ANP
2) CC[C@@H](Nc1nc2c(c(N[C@@H](CN3CCCC3)c3ccccc3)n1)C[C@@H](c1ccccc1)CC2)[C@H]1CC[C@H](C(=O)O)CC1 [Compound 115]    111.049 % of ANP
3) CC[C@@H](N(C)c1nc2c(c(N[C@@H](CN3C4CCCC3CC4)c3cnc(C)s3)n1)C[C@H](c1cccc(F)c1)CC2)C12CC(C(=O)O)(C1)C2 [Compound 77]    95.666 % of ANP
4) CC[C@H]([C@H]1CC[C@H](C(=O)O)CC1)N(C)c1nc2c(c(N[C@@H](CN3CCCCC3)c3cnn(CC4CC4)c3)n1)C[C@H](c1ccccc1)CC2 [Compound 147]    97.612 % of ANP
5) CC[C@@H](Nc1nc2c(c(N[C@@H](CN3CCCCC3)c3cnn(C)c3)n1)CN(c1cccc(F)c1)CC2)[C@H]1CC[C@H](C(=O)O)CC1 [Compound 55]    92.712 % of ANP
6) CC[C@H]([C@H]1CC[C@H](C(=O)O)CC1)N(C)c1nc2c(c(N[C@@H](CN3CCC[C@@H](C)C3)c3cnn(C)c3)n1)C[C@H](c1ccccc1)CC2 [Compound 125]    106.130 % of ANP
7) CC[C@H]([C@H]1CC[C@H](C(=O)O)CC1)N(C)c1nc2c(c(N[C@@H](CN3CCC[C@H](CO)C3)c3cnn(C)c3)n1)C[C@H](c1ccccc1)CC2 [Compound 93]    92.058 % of ANP

---

Target: human NPR1 (Homo sapiens)
Construct: host or cells: CHO-K1
Sequence (P16066 33-1061): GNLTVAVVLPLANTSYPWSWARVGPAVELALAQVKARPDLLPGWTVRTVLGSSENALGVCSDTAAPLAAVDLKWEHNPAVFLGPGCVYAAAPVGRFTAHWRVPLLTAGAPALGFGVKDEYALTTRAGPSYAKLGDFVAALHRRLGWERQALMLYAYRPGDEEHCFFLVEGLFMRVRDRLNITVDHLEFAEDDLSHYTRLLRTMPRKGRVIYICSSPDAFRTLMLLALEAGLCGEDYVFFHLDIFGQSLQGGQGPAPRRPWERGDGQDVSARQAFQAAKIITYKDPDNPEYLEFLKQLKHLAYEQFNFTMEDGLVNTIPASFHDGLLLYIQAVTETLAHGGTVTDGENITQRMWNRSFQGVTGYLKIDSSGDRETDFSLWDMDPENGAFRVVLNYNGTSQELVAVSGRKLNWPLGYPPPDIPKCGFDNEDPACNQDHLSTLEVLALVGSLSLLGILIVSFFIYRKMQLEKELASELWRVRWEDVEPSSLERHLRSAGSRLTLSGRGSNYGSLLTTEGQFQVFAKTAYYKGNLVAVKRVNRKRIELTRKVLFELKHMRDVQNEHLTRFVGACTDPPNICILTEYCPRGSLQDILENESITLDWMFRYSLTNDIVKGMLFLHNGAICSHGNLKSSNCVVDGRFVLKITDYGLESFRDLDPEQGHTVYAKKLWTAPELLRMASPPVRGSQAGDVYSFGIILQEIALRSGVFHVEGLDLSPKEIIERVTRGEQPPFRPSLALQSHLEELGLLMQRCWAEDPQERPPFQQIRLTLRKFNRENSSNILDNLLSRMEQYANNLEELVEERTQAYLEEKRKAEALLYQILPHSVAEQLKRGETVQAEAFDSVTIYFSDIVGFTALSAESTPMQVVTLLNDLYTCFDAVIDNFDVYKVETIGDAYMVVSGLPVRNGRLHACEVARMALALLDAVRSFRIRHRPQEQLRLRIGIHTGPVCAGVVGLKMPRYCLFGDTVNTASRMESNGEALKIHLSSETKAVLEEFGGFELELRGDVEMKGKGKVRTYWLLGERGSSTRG
Test: Cellular cGMP production assay, human NPR1 expressing CHO-K1 cells (CisBio HTRF)
Type: cell-based
Details: maximum cGMP production as percentage of the maximum cGMP produced with ANP
Endpoint: Human NPR1 Amax (% of ANP)

1) CC[C@@H](N(C)c1nc2c(c(N[C@@H](CN3C4CCCC3CCC4)c3cnn(C)c3)n1)C[C@H](c1ccc(F)cc1)CC2)C12CC(C(=O)O)(C1)C2    103.738 % of ANP
2) CC[C@H]([C@H]1CC[C@H](C(=O)O)CC1)N(C)c1nc2c(c(N[C@@H](CN3CCC[C@H](C)C3)c3cn(C)nc3F)n1)C[C@H](c1ccccc1)CC2 (stereo in doubt)    98.01 % of ANP
3) CC[C@@H](N(C)c1nc2c(c(N[C@@H](CN3C4CCCC3CCC4)c3cnn(C)c3C)n1)C[C@H](c1cccc(F)c1)CC2)C12CC(C(=O)O)(C1)C2    98.816 % of ANP
4) CC[C@@H](Nc1nc2c(c(N[C@@H](CN3CCCC[C@H]3C)c3cnn(C)c3)n1)C[C@H](c1ccccc1)CC2)[C@H]1CC[C@H](C(=O)O)CC1    103.308 % of ANP
5) CC[C@@H](N(C)c1nc2c(c(N[C@@H](CN3CCC[C@H](C)C3)c3cc(C)nn3C)n1)C[C@H](c1ccccc1)CC2)C12CC(C(=O)O)(C1)C2    89.152 % of ANP
6) CC[C@H]([C@H]1CC[C@H](C(=O)O)CC1)N(C)c1nc2c(c(N[C@@H](CN3CCC[C@H](C)C3)c3cnn(C)c3)n1)CN(c1ccccc1F)CC2    100.198 % of ANP
7) CC[C@@H](Nc1nc2c(c(N[C@@H](CN3CCCC[C@H]3C)c3cnn(CC)c3)n1)C[C@H](c1ccccc1)CC2)[C@H]1CC[C@H](C(=O)O)CC1    93.045 % of ANP
8) CN(c1nc2c(c(N[C@@H](CN3C4CCCC3CCC4)c3cnn(C)c3)n1)C[C@H](c1ccccc1)CC2)[C@H](C1CC1)[C@H]1CC[C@H](C(=O)O)CC1    95.978 % of ANP
9) CC[C@@H](Nc1nc2c(c(N[C@@H](CN3CCC[C@H](C)C3)c3cnn(C)c3)n1)C[C@](C)(c1ccccc1F)CC2)[C@H]1CC[C@H](C(=O)O)CC1    95.253 % of ANP
10) CC[C@H]([C@H]1CC[C@H](C(=O)O)CC1)N(C)c1nc2c(c(N[C@@H](CN3C4CCCC3CC4)c3cnn(C)c3)n1)C[C@H](c1ccccc1)CC2    101.239 % of ANP
11) CC[C@H]([C@H]1CC[C@H](C(=O)O)CC1)N(C)c1nc2c(c(N[C@@H](CN3CCCC4(CCOC4)C3)c3cnn(CC)c3)n1)C[C@H](c1ccccc1)CC2 (stereo partly shown)    83.721 % of ANP
12) CC[C@H]([C@H]1CC[C@H](C(=O)O)CC1)N(C)c1nc2c(c(N[C@@H](CN3CCC(C)CC3)c3cnn(C)c3)n1)C[C@H](c1ccccc1)CC2    97.636 % of ANP
13) CC[C@H]([C@H]1CC[C@H](C(=O)O)CC1)N(C)c1nc2c(c(N[C@@H](CN3C4CCCC3CC4)c3cnn(C)c3)n1)CN(c1ccc(F)cc1)CC2    94.876 % of ANP
14) CC[C@@H](Nc1nc2c(c(N[C@@H](CN3CCCC3)c3ccccc3)n1)CN(c1ccccc1)CC2)[C@H]1CC[C@H](C(=O)O)CC1    101.666 % of ANP
15) CC[C@@H](N(C)c1nc2c(c(N[C@@H](CN3CCC[C@H](C)C3)c3cnn(C)c3)n1)C[C@](C)(c1ccccc1)CC2)C12CC(C(=O)O)(C1)C2    92.409 % of ANP
16) CC[C@H]([C@H]1CC[C@H](C(=O)O)CC1)N(C)c1nc2c(c(N[C@@H](CN3CCCC(F)C3)c3cnn(C)c3)n1)C[C@H](c1ccccc1)CC2 (stereo partly shown)    93.013 % of ANP
17) CC[C@H]([C@H]1CC[C@H](C(=O)O)CC1)N(C)c1nc2c(c(N[C@@H](CN3C4CCCC3CC4)c3cnn(C)c3)n1)C[C@](C)(c1ccccc1)CC2    95.375 % of ANP
18) CC[C@@H](Nc1nc2c(c(N[C@@H](CN3CCC(F)CC3)c3cnn(C)c3)n1)C[C@H](c1ccccc1)CC2)[C@H]1CC[C@H](C(=O)O)CC1    107.815 % of ANP
19) CC[C@@H](Nc1nc2c(c(N[C@@H](CN3CCC(C)CC3)c3cnn(C)c3)n1)C[C@H](c1ccccc1)CC2)[C@H]1CC[C@H](C(=O)O)CC1    100.330 % of ANP
20) CC[C@@H](Nc1nc2c(c(N[C@@H](CN3CCC[C@H](C)C3)c3cnn(C(C)C)c3)n1)C[C@H](c1ccccc1)CC2)[C@H]1CC[C@H](C(=O)O)CC1    102.676 % of ANP
21) CC[C@@H](N(C)c1nc2c(c(N[C@H](CN3CCCCCC3)c3cnn(C)c3)n1)C[C@H](c1cccc(F)c1)CC2)C12CC(C(=O)O)(C1)C2    99.041 % of ANP
22) CC[C@H]([C@H]1CC[C@H](C(=O)O)CC1)N(C)c1nc2c(c(N[C@@H](CN3CCC[C@H](C)C3)c3cnn(C)c3)n1)C[C@@H](c1ccccc1)CC2    93.777 % of ANP

Source listed as patent US12129246B1.
